Listed next: entries and their corresponding log10(IC50).
- target.of.assay: Diacylglycerol O-acyltransferase 1 (Mus musculus)
- Sequence (Q9Z2A7 whole entry): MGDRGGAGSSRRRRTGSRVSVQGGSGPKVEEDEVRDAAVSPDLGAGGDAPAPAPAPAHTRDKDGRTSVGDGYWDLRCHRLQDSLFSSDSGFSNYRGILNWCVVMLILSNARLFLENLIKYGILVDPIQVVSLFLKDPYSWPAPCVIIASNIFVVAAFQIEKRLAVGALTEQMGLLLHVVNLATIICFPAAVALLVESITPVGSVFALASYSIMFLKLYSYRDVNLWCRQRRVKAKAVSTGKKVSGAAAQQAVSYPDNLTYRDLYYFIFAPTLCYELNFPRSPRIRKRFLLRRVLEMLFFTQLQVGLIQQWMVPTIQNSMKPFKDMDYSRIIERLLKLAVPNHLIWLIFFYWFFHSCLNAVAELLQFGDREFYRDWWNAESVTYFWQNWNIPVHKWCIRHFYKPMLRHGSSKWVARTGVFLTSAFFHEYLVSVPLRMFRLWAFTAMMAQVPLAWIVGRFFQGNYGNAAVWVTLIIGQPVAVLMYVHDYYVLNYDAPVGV
Please interpret these as log10 of IC50 where IC50 is in nM.

For orientation, consider the following solved cases.
1. COc1cc(N2CCOc3ncnc(N)c3C2=O)cc(C)c1C#CC(C)(C)CC(=O)O 1.98
2. CCc1cc(N2CCOc3ncnc(N)c3C2=O)cc(C)c1C#CC(C)(C)CC(=O)O 1.08
3. CC(C)(C#Cc1c(Cl)cc(N2CCOc3ncnc(N)c3C2=O)cc1Cl)CC(=O)O 1.00
4. CCc1cc(N2CCOc3ncnc(N)c3C2=O)ccc1C#CC(C)(C)CC(=O)O 2.83

Let's switch to this compound now.
Problem: Which value of log10(IC50) has been reported for COc1cc(N2CCOc3ncnc(N)c3C2=O)ccc1C#CC(C)(C)CC(=O)O in the records?
Result: 2.86

###

- measurement.protocol: Intrinsic clearance in mouse liver microsomes
- Format: ADME, microsome
- condition.set: read-out: CLH
readout.kind: CLint scaled

Problem: Requested field: CLint scaled. Item: Cc1cc(N2CCOc3ncnc(N)c3C2=O)cc(C)c1C#CC(C)(C)CC(=O)O
Result: < 38 mL/min/kg

###

# key: entry, value: pIC50
- target.of.assay: UniProt:Q9Z2A7
- measurement.protocol: Inhibition of mouse DGAT1 expressed in insect cell membranes using diacylglycerol/[14C]-oleoyl-CoA as substrate preincubated for 10 mins followed by [14C]-oleoyl-CoA addition measured after 15 mins by scintillation counting method
The meaning of pIC50 here: minus log10 of the concentration in molar units.

Below are worked cases with known answers.
1) Cc1cc(C#CC(C)(C)CC(=O)O)ccc1N1CCOc2ncnc(N)c2C1=O 5.42
2) CC(C)(C#Cc1ccc(N2CCOc3ncnc(N)c3C2=O)cc1Cl)CC(=O)O 7.59

Problem: What value of pIC50 has been recorded for this entry: Cc1cc(N2CCOc3ncnc(N)c3C2=O)cc(Cl)c1C#CC(C)(C)CC(=O)O
Result: 7.85

Problem: Reported pIC50, compound CC(C)(C#Cc1ccc(N2CCOc3ncnc(N)c3C2=O)cc1C(F)(F)F)CC(=O)O : ____
Result: 7.62

Problem: Look up pIC50 for this compound: CCc1cc(N2CCOc3ncnc(N)c3C2=O)cc(CC)c1C#CC(C)(C)CC(=O)O
Result: 7.92
